organism: Rattus norvegicus; experiment: Open TG-GATES - Regimen: Single; type: toxicity, organism-based, Sprague-Dawley; parameters: regimen Single, gender Male, age 6 weeks; settings: in vivo, po, 0 mg/kg, 3 h, tissue Blood, route gavage, dose level Control
Could you please report measured Eos for the items listed next?
Numbers only, in %.

compound	Eos / %
CCOC(=O)CCC(=O)O[C@H]1[C@H](O[C@@H]2[C@@H](C)[C@H](O[C@H]3C[C@@](C)(OC)[C@@H](O)[C@H](C)O3)[C@@H](C)C(=O)O[C@H](CC)[C@@](C)(O)[C@H](O)[C@@H](C)C(=O)[C@H](C)C[C@@]2(C)O)O[C@H](C)C[C@@H]1N(C)C [ERYTHROMYCIN ETHYLSUCCINATE]	1
COc1cc2c(c(OC)c1OC)-c1ccc(OC)c(=O)cc1[C@@H](NC(C)=O)CC2 [COLCHICINE]	0.8

Provide each entry's Eos from the list below.
1. CC1=C(/C=C/C(C)=C/C=C/C(C)=C/CO)C(C)(C)CCC1 [RETINOL]
2. NC(N)=Nc1nc(CSCCC(N)=NS(N)(=O)=O)cs1 [FAMOTIDINE]
3. CCCNC(=O)NS(=O)(=O)c1ccc(Cl)cc1 [CHLORPROPAMIDE]

1. 0.8
2. 1
3. 1

Provide each entry's Eos from the list below.
1. COC1=CC(=O)C[C@@H](C)[C@]12Oc1c(Cl)c(OC)cc(OC)c1C2=O [GRISEOFULVIN]
2. Cc1ccc(C)c(OCCCC(C)(C)C(=O)O)c1 [GEMFIBROZIL]

1: 0.4; 2: 0.6

---

Could you please report measured MCV for the items listed next?
organism: Rattus norvegicus; assay: Open TG-GATES - Regimen: Daily Repeat; format: toxicity, organism-based, Sprague-Dawley; design: regimen Daily Repeat, gender Male, age 6 weeks; conditions: in vivo, po, 1000 mg/kg, […], tissue Blood, route gavage, dose level High, time 14 day
Give bare numbers, in fL.

compound	measure unit	MCV
CCOc1ccc(NC(=O)CC(C)O)cc1 (stereo unspecified)	fL	70.1

Provide each entry's MCV from the list below.
1. NC(N)=Nc1nc(CSCCC(N)=NS(N)(=O)=O)cs1
2. CC(C)OC(=O)C(C)(C)Oc1ccc(C(=O)c2ccc(Cl)cc2)cc1 [FENOFIBRATE]
3. COc1ccc2[nH]c([S+]([O-])Cc3ncc(C)c(OC)c3C)nc2c1 (stereo unspecified)
4. CCOC(=O)CCC(=O)O[C@H]1[C@H](O[C@@H]2[C@@H](C)[C@H](O[C@H]3C[C@@](C)(OC)[C@@H](O)[C@H](C)O3)[C@@H](C)C(=O)O[C@H](CC)[C@@](C)(O)[C@H](O)[C@@H](C)C(=O)[C@H](C)C[C@@]2(C)O)O[C@H](C)C[C@@H]1N(C)C [ERYTHROMYCIN ETHYLSUCCINATE]
5. COC1=CC(=O)C[C@@H](C)[C@]12Oc1c(Cl)c(OC)cc(OC)c1C2=O

1. 62
2. 58.7
3. 54.3
4. 59
5. 62

---

species on record: Rattus norvegicus; test: Open TG-GATES - Regimen: Daily Repeat; assay type: toxicity, organism-based, Sprague-Dawley; design: regimen Daily Repeat, gender Male, age 6 weeks; conditions: in vivo, po, 0 mg/kg, […], tissue Plasma, route gavage, dose level Control, time 14 day
Could you please report measured BUN for the items listed next?
State the result as a value with its unit after it.

compound	result value
CCOC(=O)CCC(=O)O[C@H]1[C@H](O[C@@H]2[C@@H](C)[C@H](O[C@H]3C[C@@](C)(OC)[C@@H](O)[C@H](C)O3)[C@@H](C)C(=O)O[C@H](CC)[C@@](C)(O)[C@H](O)[C@@H](C)C(=O)[C@H](C)C[C@@]2(C)O)O[C@H](C)C[C@@H]1N(C)C [ERYTHROMYCIN ETHYLSUCCINATE]	21 mg/dL
O=C(CCCN1CCC(O)(c2ccc(Cl)cc2)CC1)c1ccc(F)cc1	21.2 mg/dL
CN1C(=O)CN=C(c2ccccc2)c2cc(Cl)ccc21	19.4 mg/dL
CCOc1ccc(NC(=O)CC(C)O)cc1 (stereo unspecified)	16 mg/dL
CCCNC(=O)NS(=O)(=O)c1ccc(Cl)cc1 [CHLORPROPAMIDE]	18.4 mg/dL

Next compound, please.
Name the recorded BUN for NC(N)=Nc1nc(CSCCC(N)=NS(N)(=O)=O)cs1 .
15.8 mg/dL
